Target: purified human plasma kallikrein (Homo sapiens (Human))
Sequence (P03952 391-638): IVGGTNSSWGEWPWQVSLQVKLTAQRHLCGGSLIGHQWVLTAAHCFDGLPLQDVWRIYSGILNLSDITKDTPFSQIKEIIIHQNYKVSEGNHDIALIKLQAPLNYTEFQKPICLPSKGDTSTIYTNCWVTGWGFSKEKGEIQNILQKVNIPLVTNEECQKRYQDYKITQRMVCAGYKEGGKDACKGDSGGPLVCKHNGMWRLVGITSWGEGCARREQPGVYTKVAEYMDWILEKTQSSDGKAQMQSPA
Sequence (P03952 20-390 partner): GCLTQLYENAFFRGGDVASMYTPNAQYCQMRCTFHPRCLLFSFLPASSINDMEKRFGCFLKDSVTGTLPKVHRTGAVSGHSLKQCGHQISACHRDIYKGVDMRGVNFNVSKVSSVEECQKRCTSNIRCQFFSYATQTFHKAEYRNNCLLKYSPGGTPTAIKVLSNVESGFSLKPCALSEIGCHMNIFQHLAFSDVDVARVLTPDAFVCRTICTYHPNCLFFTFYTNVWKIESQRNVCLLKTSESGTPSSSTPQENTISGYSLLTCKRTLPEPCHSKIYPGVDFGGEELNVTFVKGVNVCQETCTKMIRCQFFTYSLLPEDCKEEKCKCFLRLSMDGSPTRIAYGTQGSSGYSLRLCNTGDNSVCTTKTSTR
Assay: Plasma kallikrein enzyme inhibition assay (chromogenic substrate S-2302)
Type: biochemical
Details: measured at 25° C. (no asterisk); TFA salt
Structures can show the parent of a compound that is named as a salt.
assayEndpoint: pKi
Answers are plain numbers, as −log10 of the molar value.

The examples below pair each entry with its known result.
* COC1CCN(c2cccc3c2CCN(C(=O)C2CC(c4c(C(F)(F)F)ccc(Cl)c4F)=NO2)C3C(=O)Nc2ccc(C(=O)O)cc2)CC1 (centres unmarked) [Example 297, TFA salt] | 5.89
* CN1CCN(c2cccc3c2CCN(C(=O)C2CC(c4cccc(Cl)c4F)=NO2)C3C(=O)Nc2ccc(C(=O)O)cc2)CC1=O (single isomer, unassigned) [Example 280, TFA salt] | 6.55
* CC(C)(O)C1CCN(c2cccc3c2CCN(C(=O)C2CC(c4cccc(Cl)c4F)=NO2)C3C(=O)Nc2ccc(C(=O)O)cc2)CC1 (centres unmarked) [Example 263, TFA salt] | 7.17
* COC1CCN(c2cccc3c2CCN(C(=O)C2CC(c4cccc(Cl)c4F)=NO2)C3C(=O)Nc2ccc(C(=O)O)cc2)CC1 (single isomer, unassigned) [Example 303, TFA salt] | 5.71
* COC1CCN(c2cccc3c2CCN(C(=O)C2CC(c4c(F)ccc(Cl)c4F)=NO2)C3C(=O)Nc2ccc(C(=O)O)cc2)CC1 (centres unmarked) [Example 257, TFA salt] | 7.62
* COC1CCN(c2cccc3c2CCN(C(=O)C2(C)CC(c4cccc(Cl)c4F)=NO2)C3C(=O)Nc2ccc(C(=O)O)cc2)CC1 (centres unmarked) [Example 267, TFA salt] | 6.45
* CC(C)(O)C1CCN(c2cccc3c2CCN(C(=O)C2CC(c4cccc(Cl)c4F)=NO2)C3C(=O)Nc2ccc(C(=O)O)cc2)CC1 (centres unmarked) [Example 262, TFA salt] | 8.36

For the next question, use this molecule.
INPUT: For the molecule shown here, COC1CCN(c2cccc3c2CCN(C(=O)C2CC(c4c(F)ccc(Cl)c4F)=NO2)C3C(=O)Nc2ccc(C(=O)O)cc2)CC1 (centres unmarked) [Example 256, TFA salt] , give the reported pKi.
OUTPUT: 6.70

----------
Target: purified human Factor XIa (Homo sapiens (Human), UniProt P03951)
Sequence (P03951 388-625): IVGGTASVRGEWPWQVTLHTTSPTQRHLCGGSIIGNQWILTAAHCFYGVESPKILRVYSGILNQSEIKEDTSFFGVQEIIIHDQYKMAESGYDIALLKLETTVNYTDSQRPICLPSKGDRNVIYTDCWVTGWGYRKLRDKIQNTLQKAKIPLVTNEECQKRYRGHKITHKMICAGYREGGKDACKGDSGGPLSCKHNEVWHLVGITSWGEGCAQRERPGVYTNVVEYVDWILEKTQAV
Sequence (P03951 19-387 partner): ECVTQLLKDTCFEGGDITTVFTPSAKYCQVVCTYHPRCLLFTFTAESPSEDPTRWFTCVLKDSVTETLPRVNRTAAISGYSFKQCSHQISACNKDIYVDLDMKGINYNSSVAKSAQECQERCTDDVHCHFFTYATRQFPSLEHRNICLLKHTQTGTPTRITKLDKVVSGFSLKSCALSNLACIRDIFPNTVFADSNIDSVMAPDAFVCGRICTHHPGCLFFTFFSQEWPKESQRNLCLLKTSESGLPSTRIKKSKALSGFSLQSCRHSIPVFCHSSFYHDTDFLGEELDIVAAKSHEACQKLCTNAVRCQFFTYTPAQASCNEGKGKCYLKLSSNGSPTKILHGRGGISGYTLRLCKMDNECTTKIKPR
Assay: Factor XIa enzyme inhibition assay (chromogenic substrate S-2366)
Settings: read-out: Factor XIa Ki; measured at 25° C.
pKi: −log10 of the molar value. Structures can show the parent of a compound that is named as a salt.
assayEndpoint: pKi

- O=C(O)c1ccc(NC(=O)C2c3cccc(N4CCOCC4=O)c3CCN2C(=O)c2cn(-c3cccc(Cl)c3F)nn2)cc1 (stereo not drawn) [Example 69]: > 8.30

Need pKi for each of these compounds.
1. O=C(Nc1ccc2ncccc2c1)[C@H]1c2cccc(-c3cncnc3)c2CCN1C(=O)c1cn(-c2cccc(Cl)c2F)nn1 (stereo in doubt) [Example 125, TFA salt]
2. CN1CCN(c2cccc3c2CCN(C(=O)c2cn(-c4cccc(Cl)c4F)nn2)C3C(=O)Nc2ccc(C(=O)O)cc2)CC1 (stereo not drawn) [Example 211, TFA salt]

OUTPUT:
8.02
> 8.30

----------
Biological target: purified human Factor XIa (Homo sapiens (Human), UniProt P03951)
Experiment: Factor XIa enzyme inhibition assay (chromogenic substrate S-2366)
Conditions: read-out: Factor XIa Ki; measured at 25° C.
Counter-ions that a name gives are not always drawn.
assayEndpoint: pKi
Give bare numbers, as −log10 of the molar value.

Recorded results for 3 compounds are shown here.
- O=C(O)c1ccc(NC(=O)C2c3cccc(-c4cccc(-c5ccn[nH]5)c4)c3CCN2C(=O)c2cn(-c3cccc(Cl)c3F)nn2)cc1 (centres unmarked) [Example 164]: 8.04
- COC(=O)c1ccc(NC(=O)[C@@H]2c3cccc(-c4cncnc4)c3CCN2C(=O)c2cn(-c3cccc(Cl)c3F)nn2)cc1 [Example 26]: 8.15
- N#Cc1ccc(-c2cccc3c2CCN(C(=O)c2cn(-c4cccc(Cl)c4F)nn2)[C@H]3C(=O)Nc2ccc(C(=O)O)cc2)cn1 [Example 15, TFA salt]: 8.04

Answer for every listed entry: what is its pKi? The entries follow.
1. CN(C)C1CCN(c2cccc3c2CCN(C(=O)c2cn(-c4cccc(Cl)c4F)nn2)[C@H]3C(=O)Nc2ccc(C(N)=O)cc2)CC1 [Example 100, bis-TFA salt]
2. COC1CCN(c2cccc3c2CCN(C(=O)c2cc(-c4ccccc4Cl)no2)C3C(=O)Nc2ccc(C(=O)O)cc2)CC1 (centres unmarked) [Example 148, TFA salt]
3. CN(C)C1CCN(c2cccc3c2CCN(C(=O)c2cn(-c4cccc(Cl)c4F)cn2)[C@H]3C(=O)Nc2ccc(C(=O)O)cc2)CC1 (single isomer, unassigned) [Example 54, bis-TFA salt]
4. CN(C)C1CCN(c2cccc3c2CCN(C(=O)c2cn(-c4cccc(Cl)c4F)nn2)[C@H]3C(=O)Nc2ccc(-c3cn[nH]c3)cc2)CC1 [Example 103, bis-TFA salt]
5. COC1CCN(c2cccc3c2CCN(C(=O)c2cn(-c4cccc(Cl)c4F)nn2)[C@@H]3C(=O)Nc2ccc(CO)cc2)CC1 [Example 122]
6. COC(=O)c1ccc(NC(=O)[C@H]2c3cccc(-c4cncnc4)c3CCN2C(=O)[C@H]2CC(c3cccc(Cl)c3F)=NO2)cc1 [Example 29]

OUTPUT:
[6.54, 7.16, 8.05, 7.75, 7.78, 7.23]

Provide reported pKi for each item, in the same order as listed.
1. O=C(N[C@H]1CC[C@@H](C(=O)O)CC1)C1c2cccc(-c3cncnc3)c2CCN1C(=O)c1cn(-c2cccc(Cl)c2F)nn1 (some centres unmarked) [Example 133]
2. CN(C)C(=O)C1CCN(c2cccc3c2CCN(C(=O)c2cn(-c4cccc(Cl)c4F)nn2)[C@H]3C(=O)Nc2ccc(C(=O)O)cc2)CC1 (single isomer, unassigned) [Example 57, TFA salt]

OUTPUT:
1: 7.90; 2: 7.48

----------
Please provide measured pKi for the entries that follow.
Target: purified human Factor XIa (Homo sapiens (Human), UniProt P03951)
Test: Factor XIa enzyme inhibition assay (chromogenic substrate S-2366)
Conditions: read-out: Factor XIa Ki; measured at 25° C.
Structures can show the parent of a compound that is named as a salt.
Answers are plain numbers, as −log10 of the molar value.

Recorded results for 2 compounds are shown here.
* COC(=O)c1ccc(NC(=O)[C@@H]2c3cccc(N4CCN(C5COC5)CC4)c3CCN2C(=O)[C@H]2CC(c3cccc(Cl)c3F)=NO2)cc1 [Example 232, TFA salt] | 5.38
* COC1CCN(c2cccc3c2CCN(C(=O)c2sc(-c4cccnc4)nc2C)C3C(=O)Nc2ccc(C(=O)O)cc2)CC1 (stereo not drawn) [Example 146, TFA salt] | 5.92

Here's the next entry for you.
INPUT: Suppose we examine the compound COC(=O)c1ccc(NC(=O)[C@H]2c3cccc(-c4cncnc4)c3CCN2C(=O)c2cn(-c3cccc(Cl)c3F)nn2)cc1 [Example 25] ; what pKi value has been reported?
OUTPUT: 5.45

----------
Answer each item with its documented Ki.
Target: purified human Factor XIa (Homo sapiens (Human))
Assay: Factor XIa enzyme inhibition assay (chromogenic substrate S-2366)
Settings: read-out: Factor XIa Ki; measured at 25° C.
Counter-ions that a name gives are not always drawn.

* CNC(=O)c1cncc(-c2cccc3c2CCN(C(=O)c2cn(-c4cccc(Cl)c4F)nn2)C3C(=O)Nc2ccc(C(=O)O)cc2)c1 (stereo not drawn) [Example 37, TFA salt] | < 5 nM
* CN1CCN(c2cccc3c2CCN(C(=O)c2cn(-c4cccc(Cl)c4)nn2)C3C(=O)Nc2ccc(C(=O)O)cc2)CC1 (stereo not drawn) [Example 201, TFA salt] | 9.88 nM

Field: next compound
INPUT: Could you tell me which Ki is on file for O=C(O)c1ccc(NC(=O)C2c3cccc(N4CCCCC4=O)c3CCN2C(=O)c2cn(-c3cccc(Cl)c3F)nn2)cc1 (stereo not drawn) ?
OUTPUT: < 5 nM

----------
Kindly supply the reported pKi values for the records listed here.
Target: purified human Factor XIa (Homo sapiens (Human))
Experiment: Factor XIa enzyme inhibition assay (chromogenic substrate S-2366)
Conditions: read-out: Factor XIa Ki; measured at 25° C.
pKi: −log10 of the molar value. Counter-ions that a name gives are not always drawn.

Sample records with pKi:
• CC(CO)(CO)COC(C)(C)C1CCN(c2cccc3c2CCN(C(=O)c2cnn(-c4cccc(Cl)c4F)c2)C3C(=O)Nc2ccc(C(=O)O)cc2)CC1 (stereo not drawn) [Example 225, TFA salt] = > 8.30
• Cn1cc2c(n1)CCN(C(=O)c1cn(-c3cccc(Cl)c3F)nn1)C2C(=O)Nc1ccc(C(=O)O)cc1 (stereo not drawn) = 6.11

Could you now consider this next compound?
INPUT: Consider the compound O=C(Nc1ccc(-c2cc[nH]n2)cc1)C1c2cccc(-c3cncnc3)c2CCN1C(=O)c1cn(-c2cccc(Cl)c2F)nn1 (stereo not drawn) [Example 127, TFA salt] and give its measured pKi.
OUTPUT: > 8.30

Origin of the recorded values: patent US9738655B2
